Tested on: E. coli 94474
Assay type: cell-based, Escherichia coli
measurement.setup: UTBLP alone, plate with rifampicin
Non-standard residues stand in square brackets, D forms with d. Residues, ends and D or L forms follow the SMILES beside them. *: point of attachment. Lys(Me3) = C[N+](C)(C)CCCC[C@H](N)C(=O)O; Lys(Me2) = CN(C)CCCC[C@H](N)C(=O)O; Lys(Me) = CNCCCC[C@H](N)C(=O)O; Octanoyl = CCCCCCCC(=O)*
observation.type: MICUTBLP

[[record]]
compound = "CCCCCCCC(=O)NCCCC[C@H](NC(=O)CCCCCCC)C(=O)N[C@@H](CCCCN(C)C)C(=O)N[C@@H](CCCCN(C)C)C(=O)N[C@@H](CCCCN(C)C)C(=O)N[C@@H](CCCCN(C)C)C(N)=O [UTBLP 7] (Octanoyl-K(Octanoyl)[Lys(Me2)][Lys(Me2)][Lys(Me2)][Lys(Me2)]-NH2)"
tested_system = "E. coli 94474"
observation_type = "MICUTBLP"
experimental_value = "128 µg/mL"

[[record]]
compound = "CCCCCCCC(=O)NCCCC[C@H](NC(=O)CCCCCCC)C(=O)N[C@@H](CCCCN)C(=O)N[C@@H](CCCCN)C(=O)N[C@@H](CCCCN)C(=O)N[C@@H](CCCCN)C(N)=O [UTBLP 5] (Octanoyl-K(Octanoyl)KKKK-NH2)"
tested_system = "E. coli 94474"
observation_type = "MICUTBLP"
experimental_value = "128 µg/mL"

[[record]]
compound = "CCCCCCCC(=O)N[C@@H](CCCCN(C)C)C(=O)NCCCN(CCCNC(=O)[C@H](CCCCN(C)C)NC(=O)CCCCCCC)CC(=O)N[C@@H](CCCCN(C)C)C(N)=O"
tested_system = "E. coli 94474"
observation_type = "MICUTBLP"
experimental_value = "> 128 µg/mL"

[[record]]
compound = "CCCCCCCC(=O)N[C@@H](CCCCN)C(=O)NCCCN(CCCNC(=O)[C@H](CCCCN)NC(=O)CCCCCCC)CC(=O)N[C@@H](CCCCN)C(N)=O"
tested_system = "E. coli 94474"
observation_type = "MICUTBLP"
experimental_value = "> 128 µg/mL"

[[record]]
compound = "CCCCCCCC(=O)NCCCC[C@H](NC(=O)CCCCCCC)C(=O)N[C@@H](CCCCNC)C(=O)N[C@@H](CCCCNC)C(=O)N[C@@H](CCCCNC)C(=O)N[C@@H](CCCCNC)C(N)=O [UTBLP 6] (Octanoyl-K(Octanoyl)[Lys(Me)][Lys(Me)][Lys(Me)][Lys(Me)]-NH2)"
tested_system = "E. coli 94474"
observation_type = "MICUTBLP"
experimental_value = "> 128 µg/mL"

[[record]]
compound = "CCCCCCCC(=O)NCCCC[C@H](NC(=O)CCCCCCC)C(=O)N[C@@H](CCCC[N+](C)(C)C)C(=O)N[C@@H](CCCC[N+](C)(C)C)C(=O)N[C@@H](CCCC[N+](C)(C)C)C(=O)N[C@@H](CCCC[N+](C)(C)C)C(N)=O [UTBLP 8] (Octanoyl-K(Octanoyl)[Lys(Me3)][Lys(Me3)][Lys(Me3)][Lys(Me3)]-NH2)"
tested_system = "E. coli 94474"
observation_type = "MICUTBLP"
experimental_value = "> 128 µg/mL"

[[record]]
compound = "CCCCCCCC(=O)N[C@@H](CCCCNC)C(=O)NCCCN(CCCNC(=O)[C@H](CCCCNC)NC(=O)CCCCCCC)CC(=O)N[C@@H](CCCCNC)C(N)=O"
tested_system = "E. coli 94474"
observation_type = "MICUTBLP"
experimental_value = "> 128 µg/mL"

